DGI-2/LDH values, listed per item
Biological target: T1, DGI-2 polypeptide (UniProt Q15004 1-111, limits assumed)
T1 construct: Soluble recombinant protein coated at 500 ng/well; vector tag of pIVEX2.3-MCS not described for this construct; also called KIAA0101
T1 sequence (looked up): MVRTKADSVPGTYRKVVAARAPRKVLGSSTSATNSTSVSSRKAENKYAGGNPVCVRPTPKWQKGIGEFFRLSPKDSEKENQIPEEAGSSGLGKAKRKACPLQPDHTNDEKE
Experiment: phage ELISA
Your answer should be a plain number; it is taken to be in ratio.

# count of solved cases: 2
Binder	Unit Spec	Measured Result
DGI-2-40F-3-C8 (peptide) peptide: YGTAGLFLRRACTMSDPGDPLGRRGYTGWGVLWDEWVTGSAAAGAPVPYPDPLEPRP	ratio	6
DGRGWGAMWMRWAEGLGADIAAAGAPVPYPDPLEPRP [DGI-2-20R-4-G114]	ratio	11

**Q:** DGI-2/LDH for YAMSSRECGIRNSGLILSMWAAAGAPVPYPDPLEPRP [DGI-2-20F-PP-C9] ?
**A:** 3.9

Numbers sourced from patent US7056679.
